Origin of the recorded values: patent EP4714948A1

# method summary: Pharmacokinetic test on male SD rats
# Type: in vivo
# experimental setup: rat, po, gavage (p.o.), 10 mg/kg, plasma
# Procedure: Healthy adult SD rats, male, a total of 3, 6-8 weeks old; Weighing 200-300 grams. EDTA-Na2 anticoagulant: 11.2 g of EDTA-Na2 was weighted and placed into a reagent bottle. […] A quantitative detection method for the test compound was established using a Shimadzu liquid chromatography system and a Triple Quad™ 6500+ AB mass spectrometry (MS) system. […] The main pharmacokinetic parameters were calculated using the non-compartmental model (NCA) with the WinNonlin Phoenix software. […]
readout: Tmax (h)

Would you please look over these solved cases?
• CCc1cc(Nc2ncc(Cl)c(Nc3ccccc3C(=O)NC)n2)c(OC)cc1N1CCN(C(=O)CN2CCC(c3ccc(NC4CCC(=O)NC4=O)cc3)CC2)[C@H](C)C1 (some centres unmarked) = 4.67
• CCc1cc(Nc2ncc(Br)c(Nc3ccccc3C(=O)NC)n2)c(OC)cc1N1CCN(C(=O)CN2CCC(c3ccc4c(N5CCC(=O)NC5=O)nn(C)c4c3)C(F)(F)C2)CC1 (centres unmarked) = 3.33
• CCc1cc(Nc2ncc(Cl)c(Nc3ccccc3C(=O)NC)n2)c(OC)cc1N1CCN(C(=O)CN2CCC(c3ccc(NC4CCC(=O)NC4=O)cc3)CC2)[C@@H](C)C1 (some centres unmarked) = 6

I: CCc1cc(Nc2ncc(Cl)c(Nc3ccccc3C(=O)NC)n2)c(OC)cc1N1CCN(CCN2CCC(c3ccc(NC4CCC(=O)NC4=O)cc3)CC2)CC1 (centres unmarked)
II: CCc1cc(Nc2ncc(Cl)c(Nc3ccccc3C(=O)NC)n2)c(OC)cc1N1CCN(C(=O)CN2CCC(c3ccc4c(N5CCC(=O)NC5=O)nn(C)c4c3)C(F)(F)C2)CC1 (centres unmarked)
Request: # returns the entry with the larger Tmax; inputs I and II Your answer should be the label of the entry you select.
Response: I

###

Consider the following compounds and their measured Dmax readings.
# tested system: EGFR in BAF3-DTC (Baf3-19del-T780M-C797S) (Homo sapiens, UniProt P00533, C797S/DEL746-750/T790M)
# Sequence (P00533 with tags, fused parts or gaps DEL746-750/T790M/C797S): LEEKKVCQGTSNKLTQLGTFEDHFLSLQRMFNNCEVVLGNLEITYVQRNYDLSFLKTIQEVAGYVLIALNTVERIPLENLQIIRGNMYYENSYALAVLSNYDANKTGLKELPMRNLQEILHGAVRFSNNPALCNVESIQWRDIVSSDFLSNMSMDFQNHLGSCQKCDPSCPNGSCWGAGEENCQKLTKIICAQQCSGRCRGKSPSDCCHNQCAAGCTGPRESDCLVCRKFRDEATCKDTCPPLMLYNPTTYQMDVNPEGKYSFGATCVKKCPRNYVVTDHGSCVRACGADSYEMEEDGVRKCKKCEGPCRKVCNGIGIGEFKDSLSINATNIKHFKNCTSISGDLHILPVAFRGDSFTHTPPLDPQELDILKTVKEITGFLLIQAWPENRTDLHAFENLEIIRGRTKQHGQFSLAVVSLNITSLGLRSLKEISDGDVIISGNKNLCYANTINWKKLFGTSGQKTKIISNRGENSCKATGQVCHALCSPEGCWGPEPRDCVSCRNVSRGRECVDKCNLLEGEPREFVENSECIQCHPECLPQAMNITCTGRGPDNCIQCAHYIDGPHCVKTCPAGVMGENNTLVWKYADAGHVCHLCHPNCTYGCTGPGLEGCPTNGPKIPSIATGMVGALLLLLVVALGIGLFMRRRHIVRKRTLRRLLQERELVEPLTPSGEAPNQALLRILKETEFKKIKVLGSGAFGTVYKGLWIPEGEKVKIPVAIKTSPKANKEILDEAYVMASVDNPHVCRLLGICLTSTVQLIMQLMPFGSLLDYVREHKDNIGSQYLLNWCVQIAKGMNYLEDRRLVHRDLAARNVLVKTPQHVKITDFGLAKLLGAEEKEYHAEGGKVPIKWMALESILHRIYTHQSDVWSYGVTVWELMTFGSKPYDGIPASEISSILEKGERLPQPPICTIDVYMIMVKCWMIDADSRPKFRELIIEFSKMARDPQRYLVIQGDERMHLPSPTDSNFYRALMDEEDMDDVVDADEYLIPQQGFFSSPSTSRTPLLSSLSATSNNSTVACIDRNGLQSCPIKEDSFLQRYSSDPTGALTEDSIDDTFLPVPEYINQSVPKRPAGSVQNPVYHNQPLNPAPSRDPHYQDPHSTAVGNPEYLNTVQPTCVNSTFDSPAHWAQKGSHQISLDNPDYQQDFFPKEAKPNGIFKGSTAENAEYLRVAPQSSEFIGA
# method summary: EGFR PROTAC HTRF experiment (total EGFR degradation)
# Assay type: cell-based
# experimental setup: BAF3-DTC cells, 16 hours incubation

Would you please look over these solved cases?
• CCc1cc(Nc2ncc(Cl)c(Nc3ccccc3C(=O)NC)n2)c(OC)cc1N1CCN(C(=O)CN2CCC(c3ccc(NC4CCC(=O)NC4=O)cc3F)CC2)CC1 (stereo not drawn) [Compound T-067] = 70 to 100%
• CCc1cc(Nc2ncc(Cl)c(Nc3ccccc3C(=O)NC)n2)c(OC)cc1N1CC2CCC(C1)N2C(=O)CN1CCC(c2ccc(NC3CCC(=O)NC3=O)cc2)CC1 (stereo not drawn) [Compound T-109] = 50 to 70%
• CCc1cc(Nc2ncc(Br)c(Nc3ccccc3C(=O)NC)n2)c(OC)cc1N1CCN(C(=O)CN2CCC(c3ccc4c(N5CCC(=O)NC5=O)nn(C)c4c3)C(F)(F)C2)CC1 (stereo not drawn) [Compound T-014] = 70 to 100%
• CCc1cc(Nc2ncc(Cl)c(Nc3ccccc3C(=O)NC)n2)c(OC)cc1N1CCN(C(=O)CN2CCC(c3ccc(NC4CCC(=O)NC4=O)cc3C)CC2)CC1 (stereo not drawn) [Compound T-090] = 70 to 100%

Request: Let me know recorded Dmax for CCc1cc(Nc2ncc(Cl)c(Nc3ccccc3C(=O)NC)n2)c(OC)cc1N1CC2(CN(C(=O)CN3CCC(c4ccc(NC5CCC(=O)NC5=O)cc4)CC3)C2)C1 (stereo not drawn) [Compound T-080] , thanks.
Response: 70 to 100%

Request: Let me know recorded Dmax for CCc1cc(Nc2ncc(Cl)c(Nc3ccccc3C(=O)NC)n2)c(OC)cc1N1CCN(C(=O)CN2CCC(c3ccc4c(N5CCC(=O)NC5=O)nn(C)c4c3)C(F)(F)C2)CC1 (stereo not drawn) [Compound T-013] , thanks.
Response: 70 to 100%

###

# tested system: EGFR in BAF3-LTC (Baf3-L858R-T780M-C797S) (Homo sapiens, UniProt P00533, C797S/L858R/T790M)
# Sequence (P00533 25-1210 T790M/C797S/L858R): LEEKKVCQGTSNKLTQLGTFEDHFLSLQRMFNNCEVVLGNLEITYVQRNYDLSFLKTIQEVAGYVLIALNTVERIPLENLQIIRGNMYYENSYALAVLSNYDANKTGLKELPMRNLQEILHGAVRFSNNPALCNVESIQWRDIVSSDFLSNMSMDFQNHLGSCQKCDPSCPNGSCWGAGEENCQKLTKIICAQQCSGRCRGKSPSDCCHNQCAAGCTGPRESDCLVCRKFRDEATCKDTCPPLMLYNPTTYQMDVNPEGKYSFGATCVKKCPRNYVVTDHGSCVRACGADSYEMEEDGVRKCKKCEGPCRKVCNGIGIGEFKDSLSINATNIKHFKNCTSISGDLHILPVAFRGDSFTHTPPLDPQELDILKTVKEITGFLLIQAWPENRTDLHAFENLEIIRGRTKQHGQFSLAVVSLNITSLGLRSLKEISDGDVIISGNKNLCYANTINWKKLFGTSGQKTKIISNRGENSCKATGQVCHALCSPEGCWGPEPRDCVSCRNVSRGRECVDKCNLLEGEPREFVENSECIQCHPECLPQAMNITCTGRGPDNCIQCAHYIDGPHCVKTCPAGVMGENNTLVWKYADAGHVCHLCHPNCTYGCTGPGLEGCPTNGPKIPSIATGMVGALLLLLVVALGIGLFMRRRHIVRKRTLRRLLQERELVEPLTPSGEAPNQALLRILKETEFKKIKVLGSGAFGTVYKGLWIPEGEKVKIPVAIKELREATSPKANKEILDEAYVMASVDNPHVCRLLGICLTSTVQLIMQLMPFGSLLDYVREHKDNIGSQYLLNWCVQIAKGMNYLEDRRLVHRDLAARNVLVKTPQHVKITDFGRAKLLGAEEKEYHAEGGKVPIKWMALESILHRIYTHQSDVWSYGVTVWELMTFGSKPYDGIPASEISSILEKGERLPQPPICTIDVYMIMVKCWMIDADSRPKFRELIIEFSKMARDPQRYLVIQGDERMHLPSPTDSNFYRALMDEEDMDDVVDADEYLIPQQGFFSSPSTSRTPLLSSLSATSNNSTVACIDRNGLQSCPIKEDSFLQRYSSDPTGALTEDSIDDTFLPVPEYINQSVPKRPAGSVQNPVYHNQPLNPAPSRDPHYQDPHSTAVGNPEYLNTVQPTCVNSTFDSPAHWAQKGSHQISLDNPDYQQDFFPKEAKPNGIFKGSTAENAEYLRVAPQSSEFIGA
# method summary: EGFR PROTAC HTRF experiment (total EGFR degradation)
# Assay type: cell-based
# experimental setup: BAF3-LTC cells, 16 hours incubation
readout: DC50

• CCc1cc(Nc2ncc(Cl)c(Nc3ccccc3C(=O)NC)n2)c(OC)cc1N1CCN(C(=O)CN2CCC(c3ccc(NC4CCC(=O)NC4=O)cc3F)CC2)CC1 (stereo not shown) [Compound T-067] = 10 to 100 nM
• CCc1cc(Nc2ncc(Cl)c(Nc3ccccc3C(=O)NC)n2)c(OC)cc1N1CC2(CN(C(=O)CN3CCC(c4ccc(NC5CCC(=O)NC5=O)cc4)CC3)C2)C1 (stereo not shown) [Compound T-080] = 10 to 100 nM
• CCc1cc(Nc2ncc(Cl)c(Nc3ccccc3C(=O)NC)n2)c(OC)cc1N1CCN(C(=O)CN2CCC(c3ccc(NC4CCC(=O)NC4=O)cc3C)CC2)CC1 (stereo not shown) [Compound T-090] = 10 to 100 nM
• CCc1cc(Nc2ncc(Cl)c(Nc3ccccc3C(=O)NC)n2)c(OC)cc1N1CCN(C(=O)CN2CCN(c3ccc(NC4CCC(=O)NC4=O)cc3F)CC2)CC1 (stereo not shown) [Compound T-029] = 100 to 1000 nM
• COc1cc(N2CCN(C(=O)CN3CCC(c4ccc(NC5CCC(=O)NC5=O)cc4)CC3)CC2)ccc1Nc1ncc(Cl)c(Nc2ccccc2-n2ccnn2)n1 (stereo not shown) [Compound T-007] = 100 to 1000 nM

Request: Let me know recorded DC50 for CCc1cc(Nc2ncc(Cl)c(Nc3ccccc3C(=O)NC)n2)c(OC)cc1N1CCN(C(=O)CN2CCC(c3ccc4c(N5CCC(=O)NC5=O)nn(C)c4c3)C(F)(F)C2)CC1 (stereo not shown) [Compound T-013] , thanks.
Response: ≤ 10 nM

Request: Let me know recorded DC50 for C=Cc1cc(Nc2ncc(Cl)c(Nc3ccccc3C(=O)NC)n2)c(OC)cc1N1CCN(C(=O)CN2CCC(c3ccc(NC4CCC(=O)NC4=O)cc3)CC2)CC1 (stereo not shown) [Compound T-003] , thanks.
Response: 10 to 100 nM

Request: Let me know recorded DC50 for COc1cc(N2CCN(C(=O)CN3CCC(c4ccc(NC5CCC(=O)NC5=O)cc4)CC3)CC2)ccc1Nc1ncc(Cl)c(Nc2ccccc2-c2ncc[nH]2)n1 (stereo not shown) [Compound T-011] , thanks.
Response: 100 to 1000 nM

Request: Let me know recorded DC50 for CCc1cc(Nc2ncc(Cl)c(Nc3ccccc3C(=O)NC)n2)c(OC)cc1N1CCN(C(=O)CN2CCC(c3c(F)cc(NC4CCC(=O)NC4=O)cc3F)CC2)CC1 (stereo not shown) [Compound T-068] , thanks.
Response: 10 to 100 nM

Request: Let me know recorded DC50 for CCc1cc(Nc2ncc(Br)c(Nc3ccccc3C(=O)NC)n2)c(OC)cc1N1CCN(C(=O)CN2CCC(c3ccc4c(N5CCC(=O)NC5=O)nn(C)c4c3)C(F)(F)C2)CC1 (stereo not shown) [Compound T-014] , thanks.
Response: ≤ 10 nM

###

# tested system: EGFR in BAF3-DTC (Baf3-19del-T780M-C797S) (Homo sapiens, UniProt P00533, C797S/DEL746-750/T790M)
# method summary: EGFR PROTAC HTRF experiment (total EGFR degradation)
# Type: cell-based
# experimental setup: BAF3-DTC cells, 16 hours incubation
Consider the following molecules and their measured Dmax readings.

- CCc1cc(Nc2ncc(Cl)c(Nc3ccccc3C(=O)NC)n2)c(OC)cc1N1CCN(C(=O)CN2CCC(c3c(F)cc(NC4CCC(=O)NC4=O)cc3F)CC2)CC1 (stereo not drawn): 70 to 100%
- CCc1cc(Nc2ncc(Cl)c(Nc3ccccc3C(=O)NC)n2)c(OC)cc1N1CCN(CCN2CCC(c3ccc(NC4CCC(=O)NC4=O)cc3)CC2)CC1 (stereo not drawn): 70 to 100%
- CNC(=O)c1ccccc1Nc1nc(Nc2cc(C)c(N3CCN(CCN4CCC(c5ccc(NC6CCC(=O)NC6=O)cc5)CC4)CC3)cc2OC)ncc1Cl (stereo not drawn): 70 to 100%
- CCc1cc(Nc2ncc(Cl)c(Nc3ccccc3C(=O)NC)n2)c(OC)cc1N1CCN(C(=O)CC2(O)CCN(c3ccc(NC4CCC(=O)NC4=O)cc3F)CC2)CC1 (stereo not drawn): 50 to 70%
- CCc1cc(Nc2ncc(Cl)c(Nc3ccccc3C(=O)NC)n2)c(OC)cc1N1CCN(C(=O)CN2CCN(c3ccc(NC4CCC(=O)NC4=O)cc3F)CC2)CC1 (stereo not drawn): 50 to 70%

Could you now look at the following molecule, please?
Request: Let me know recorded Dmax for C=Cc1cc(Nc2ncc(Cl)c(Nc3ccccc3C(=O)NC)n2)c(OC)cc1N1CCN(C(=O)CN2CCC(c3ccc(NC4CCC(=O)NC4=O)cc3)CC2)CC1 (stereo not drawn) , thanks.
Response: 70 to 100%
